# test_protocol: Normal-phase TLC on silica gel 60 F254 (Rf)
# Format: physicochemical
# protocol_conditions: water:methanol:acetonitrile 60:20:20, ammonium acetate pH 7.4
property_label: NP (Rf from NP TLC plate)
Answers are plain numbers.

Previously resolved entries follow.
molecule	property_label	measured_number
COc1ccc(CCN2CCC(Nc3nc4ccccc4n3Cc3ccc(F)cc3)CC2)cc1 [astemizol]	NP (Rf from NP TLC plate)	0.62
CN(C)CCCN1c2ccccc2Sc2ccc(Cl)cc21 [chlorpromazine]	NP (Rf from NP TLC plate)	0.43
COCCCC/C(=N\OCCN)c1ccc(C(F)(F)F)cc1 [fluvoxamine]	NP (Rf from NP TLC plate)	0.34
Cc1ncc2n1-c1ccc(Cl)cc1C(c1ccccc1F)=NC2 [midazolam]	NP (Rf from NP TLC plate)	0.82
O=C(O)C1N=C(c2ccccc2)c2cc(Cl)ccc2NC1=O (stereo not shown) [clorazepate]	NP (Rf from NP TLC plate)	0.94
NS(=O)(=O)c1cc(C2(O)NC(=O)c3ccccc32)ccc1Cl (stereo not shown) [chlortalidone]	NP (Rf from NP TLC plate)	0.96

Look at each molecule and report its NP (Rf from NP TLC plate).
1. O=C(O)c1cn(C2CC2)c2cc(N3CCNCC3)c(F)cc2c1=O [ciprofloxacin]
2. C[C@](N)(Cc1ccc(O)c(O)c1)C(=O)O [methyldopa]
3. COc1cc(Cc2cnc(N)nc2N)cc(OC)c1OC [trimethoprim]
4. C[C@H](CS)C(=O)N1CCC[C@H]1C(=O)O [captopril]

RESULT:
1. 0.11
2. 0.38
3. 0.57
4. 0.77

----------
# test_protocol: HPLC on IAM (immobilized artificial membrane) column, retention factor
# Assay type: physicochemical
# protocol_conditions: logarithm of retention factor; IAM.PC.DD.2 column; phosphate buffer pH 7.4:acetonitrile 80:20
Please respond with reported logkIAM for every item in the list.
Answers are plain numbers.

molecule	property_label	measured_number
CC(=O)S[C@@H]1CC2=CC(=O)CC[C@]2(C)[C@H]2CC[C@@]3(C)[C@@H](CC[C@@]34CCC(=O)O4)[C@H]12	logkIAM	1.13
C[C@H]1O[C@@H](O[C@H]2[C@@H](O)C[C@H](O[C@H]3[C@@H](O)C[C@H](O[C@H]4CC[C@@]5(C)[C@H](CC[C@@H]6[C@@H]5C[C@@H](O)[C@]5(C)[C@@H](C7=CC(=O)OC7)CC[C@]65O)C4)O[C@@H]3C)O[C@@H]2C)C[C@H](O)[C@@H]1O	logkIAM	0.57
COc1ccc2c(c1)c(CC(=O)O)c(C)n2C(=O)c1ccc(Cl)cc1	logkIAM	0.03
Clc1cccc(Cl)c1N=C1NCCN1	logkIAM	0.45

Below are 4 molecules. Give each one its logkIAM.
1. CCN(CC)CCNC(=O)c1cc(Cl)c(N)cc1OC [metoclopramide]
2. O=C1NC(=O)C(c2ccccc2)(c2ccccc2)N1
3. CC(=O)Nc1ccc(O)cc1
4. CC1(C)S[C@@H]2[C@H](NC(=O)[C@H](N)c3ccc(O)cc3)C(=O)N2[C@H]1C(=O)O

RESULT:
1: 0.79; 2: 0.25; 3: -0.49; 4: -1.32

----------
# test_protocol: HPLC on IAM (immobilized artificial membrane) column, retention factor
# Assay type: physicochemical
# protocol_conditions: IAM.PC.DD.2 column; 10 mM phosphate buffer pH 7.4:acetonitrile 80:20
Please use class 1 for k(IAM) retention factor under 1 and class 0 for everything else, ties included.

These recorded examples may help you get a feel for the data.
molecule	group_label
OCCOCCN1CCN(C(c2ccccc2)c2ccc(Cl)cc2)CC1 (centres unmarked) [hydroxyzine]	class 0
COc1ccc2c(c1)c(CC(=O)O)c(C)n2C(=O)c1ccc(Cl)cc1 [indomethacin]	class 0
CC(=O)[C@H]1CC[C@H]2[C@@H]3CCC4=CC(=O)CC[C@]4(C)[C@H]3CC[C@]12C [progesterone]	class 0
O=C1CC2(CCCC2)CC(=O)N1CCCCN1CCN(c2ncccn2)CC1 [buspirone]	class 0

QUERY: Answer whether the molecule C[C@H]1O[C@@H](O[C@H]2[C@@H](O)C[C@H](O[C@H]3[C@@H](O)C[C@H](O[C@H]4CC[C@@]5(C)[C@H](CC[C@@H]6[C@@H]5C[C@@H](O)[C@]5(C)[C@@H](C7=CC(=O)OC7)CC[C@]65O)C4)O[C@@H]3C)O[C@@H]2C)C[C@H](O)[C@@H]1O [digoxin] has k(IAM) retention factor strictly less than 1
RESULT: class 0

QUERY: Does this molecule meet the criterion k(IAM) retention factor < 1? Cc1nnc2n1-c1ccc(Cl)cc1C(c1ccccc1)=NC2 [alprazolam]
RESULT: class 0

QUERY: Given the entry Nc1nc2c(ncn2COCCO)c(=O)[nH]1 [aciclovir] , would its reported k(IAM) retention factor be below 1?
RESULT: class 1

QUERY: Does the reported k(IAM) retention factor of CCOCCn1c(C2CCN(CCc3ccc(C(C)(C)C(=O)O)cc3)CC2)nc2ccccc21 [bilastine] stay below 1?
RESULT: class 1

QUERY: Consider the molecule O=C1NC(=O)C(c2ccccc2)(c2ccccc2)N1 [phenytoin] . Is its k(IAM) retention factor strictly less than 1?
RESULT: class 0

QUERY: Is the reported k(IAM) retention factor for CC(=O)Nc1ccc(O)cc1 [paracetamol] strictly below 1?
RESULT: class 1

QUERY: Could you please tell me whether k(IAM) retention factor recorded for C[C@H](CS)C(=O)N1CCC[C@H]1C(=O)O [captopril] is less than 1?
RESULT: class 1

QUERY: Lab note: k(IAM) retention factor threshold 1. Does this molecule come in strictly under it? CC[C@H]1OC(=O)[C@H](C)[C@@H](O[C@H]2C[C@@](C)(OC)[C@@H](O)[C@H](C)O2)[C@H](C)[C@@H](O[C@@H]2O[C@H](C)C[C@H](N(C)C)[C@H]2O)[C@](C)(O)C[C@@H](C)CN(C)[C@H](C)[C@@H](O)[C@]1(C)O [azithromycin]
RESULT: class 1

QUERY: Check if k(IAM) retention factor falls below 1 for NC(=O)N1c2ccccc2C=Cc2ccccc21 [carbamazepine] .
RESULT: class 0

QUERY: Please indicate whether the reported k(IAM) retention factor of CCOC(=O)[C@H](CCc1ccccc1)N[C@@H](C)C(=O)N1Cc2ccccc2C[C@H]1C(=O)O [quinapril] is strictly below 1.
RESULT: class 0

QUERY: Here's an entry: CSc1ccc2c(c1)N(CCC1CCCCN1C)c1ccccc1S2 (centres unmarked) [thioridazine] . Is its k(IAM) retention factor below 1?
RESULT: class 0
